Assay: Selectivity index, ratio of CC50 for MDCK cells to IC50 for Influenza A virus H3N2 A/Hong Kong/68 infected in MDCK cells
Type: toxicity, cell-based
Conditions: dog, read-out: Ratio CC50/IC50
valueKind: selectivity ratio

# selectivity ratio (compound: "CC1(C)C[C@H]2C3=CC[C@@H]4[C@@]5(C)CC[C@H](O)C(C)(C)[C@@H]5CC[C@@]4(C)[C@]3(C)CC[C@@]2(C(=O)O)C[C@H]1OC(=O)/C=C/c1ccccc1" ) is > 11

Continue with the compound presented below.
# selectivity ratio (compound: "CC1(C)C[C@H]2C3=CC[C@@H]4[C@@]5(C)C[C@@H](O)[C@H](O)C(C)(C)[C@@H]5CC[C@@]4(C)[C@]3(C)CC[C@@]2(C(=O)O)C[C@H]1OC(=O)/C=C/c1ccccc1" ) is > 9
